Below: a set of entries, each annotated with reported 3F8 Ortho Proliferation Signal 1:2.
- system_under_test: T1, orthogonal hCD122 receptor (hoRb), hCD122 with H133D and Y134F (human, UniProt P14784 27-550)
- T1 sequence: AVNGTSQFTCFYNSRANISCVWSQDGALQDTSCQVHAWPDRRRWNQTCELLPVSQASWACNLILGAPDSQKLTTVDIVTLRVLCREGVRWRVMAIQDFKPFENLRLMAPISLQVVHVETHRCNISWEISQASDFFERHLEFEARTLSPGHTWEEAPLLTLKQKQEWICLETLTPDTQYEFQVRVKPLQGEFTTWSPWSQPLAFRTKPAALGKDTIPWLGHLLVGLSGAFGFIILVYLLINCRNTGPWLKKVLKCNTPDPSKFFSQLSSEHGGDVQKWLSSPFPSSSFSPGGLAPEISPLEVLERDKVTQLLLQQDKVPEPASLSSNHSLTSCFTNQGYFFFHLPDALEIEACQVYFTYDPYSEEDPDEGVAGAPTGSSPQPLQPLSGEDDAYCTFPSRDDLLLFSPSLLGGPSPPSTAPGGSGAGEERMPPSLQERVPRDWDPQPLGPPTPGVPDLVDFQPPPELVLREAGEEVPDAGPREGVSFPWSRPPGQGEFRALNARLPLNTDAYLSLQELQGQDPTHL
- protocol_description: cell-based or functional assay
All answers are understood in cts/min, so give the number only.

{"columns": ["binder", "assay_value"],
 "data": [
  ["SQVLKS (ligand) APTSSSTKKTQLQLSQLLVLLKSILNGINNYKNPKLTRMLTFKFYMPKKATELKHLQCLEEELKPLEEVLNLAQSKNFHLRPRDLISNINVIVLELKGSETTFMCEYADETATIVEFLNRWITFCQSIISTLT", 43800]
]}

Now take the following binder into account.
What measured 3F8 Ortho Proliferation Signal 1:2 goes with SQVLVA (ligand) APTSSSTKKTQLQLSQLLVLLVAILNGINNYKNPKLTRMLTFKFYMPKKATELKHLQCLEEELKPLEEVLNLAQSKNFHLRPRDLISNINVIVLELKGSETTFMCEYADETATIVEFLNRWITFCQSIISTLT ?
8530
